- System: HOP-62
- Assay explanation: NCI tumour cell line growth inhibition, 48 h
Active and inactive are the calls of the source. Cut-off read from the data, not from the text of the source: active = GI50 up to about 1.1 µM and inactive = higher. Where a SMILES comes first, the peptide text is derived from it. [ ]: non-standard residue; d: D form. The star is where a group is joined. Phe(4-NO2) = N[CH](Cc1ccc([N+](=O)[O-])cc1)C(=O)O; Boc = CC(C)(C)OC(=O)*; OtBu = CC(C)(C)O*

Molecule: Nc1c(-c2ccc(Br)cc2)[n+]([O-])c2ccccc2[n+]1[O-]
GI50: > 100 µM (inactive)

Molecule: O=C(O)c1ccc(C2=Cc3cc(Cl)ccc3OC2)cc1
GI50: > 100 µM (inactive)

Molecule: C=C(C)C1CC/C(C)=C/CCC2(C)OC2CC/C(CO)=C\C1O (stereo not drawn)
GI50: > 100 µM (inactive)

Molecule: O=C(Nc1cc(Cl)ccc1Cl)C(=O)C(c1cnc2ccccc2n1)[N+](=O)[O-] (stereo not drawn)
GI50: > 100 µM (inactive)

Molecule: COc1cc(/C=C2\C(=O)N(C(=O)c3ccc(NC(C)=O)cc3)N=C2C)ccc1O
GI50: > 100 µM (inactive)

Molecule: CCCCN1C(=O)c2c(-c3sccc3N)sc(-c3sccc3N)c2C1=O
GI50: 14.7 µM (inactive)

Molecule: O=c1[nH]c(=O)n(CCOCP(=O)(O)O)nc1Br
GI50: > 100 µM (inactive)

Molecule: O=[N+]([O-])c1ccc2nc(/C(=N\Nc3ccccc3)C(O)c3ccc4c(c3)OCO4)c(O)nc2c1 (stereo not drawn)
GI50: > 100 µM (inactive)

Molecule: [O-]c1c[n+](CCCC[n+]2cc([O-])on2)no1
GI50: > 100 µM (inactive)

Molecule: COC(=O)/C=C\C(C#N)(C#N)/N=C/c1ccc(C)s1
GI50: 14.9 µM (inactive)

Molecule: CC1=NN(c2nc(N)nc(CBr)n2)C(C)(C)C1
GI50: 19.7 µM (inactive)

Molecule: O=C1C(=C(I)I)c2ccccc2-c2ccccc21
GI50: 11.9 µM (inactive)

Molecule: COc1ccc(NC(=O)Oc2cc(C)c3ccc(=O)cc-3o2)c(OC)c1.COc1ccc(NC(=O)Oc2ccc3c(C)cc(=O)oc3c2)c(OC)c1
GI50: > 100 µM (inactive)

Molecule: CC(C)(c1ccc(OC#N)cc1)c1ccc(OC#N)cc1
GI50: > 100 µM (inactive)

Molecule: Oc1cc(O)cc(/C=C/c2ccc(O)c(O)c2)c1
GI50: 16.3 µM (inactive)

Molecule: Cc1n[nH]c(=O)n1C1CCCC1
GI50: > 100 µM (inactive)

Molecule: CCN(CC)CCCNc1nncc2cc3c([nH]c4ccc(OC)cc43)c(C)c12
GI50: 4.23 µM (inactive)

Molecule: CC(C)/C(Cl)=N/OC(=O)Nc1ccc(Br)cc1
GI50: 16.9 µM (inactive)

Molecule: CCOC(=O)C(NC(=O)CC)(C(F)(F)F)P(=O)(OCC)OCC (stereo not drawn)
GI50: > 100 µM (inactive)

Molecule: C=CCNC1=NC(=O)C(CC(=O)Nc2ccc([N+](=O)[O-])cc2[N+](=O)[O-])S1 (stereo not drawn)
GI50: > 100 µM (inactive)

Molecule: CCCC(CC)c1cc(O)c(O)cc1C(CC)CCC (stereo not drawn)
GI50: > 10 µM (inactive)

Molecule: COC(=O)C(Cc1ccc([N+](=O)[O-])cc1)NC(=O)C(CC(=O)OC(C)(C)C)NC(=O)OC(C)(C)C (stereo not drawn) (Boc-Asp(OtBu)-[Phe(4-NO2)]-OMe; configuration not given here)
GI50: > 100 µM (inactive)

Molecule: c1ccc(-c2nnc(-c3nn(-c4ccccc4)c4nc5ccccc5nc34)o2)cc1
GI50: > 100 µM (inactive)

Molecule: [N-]=[N+]=Nc1c(-c2ccccc2)c(=O)n(-c2ccccc2)c2ccccc12
GI50: 99.5 µM (inactive)

Molecule: CCOC(=O)NC(Nc1ccc(OC(F)(F)F)cc1)(C(F)(F)F)C(F)(F)F
GI50: > 100 µM (inactive)

Molecule: N#C/N=C(\N)NCCO
GI50: > 100 µM (inactive)

Molecule: OCC1C(/C=C/c2ccoc2)ON2CCCC12 (stereo not drawn)
GI50: > 100 µM (inactive)

Molecule: COC1(OC)C2(Cl)C3=CCCC=C3C1(Cl)C(Cl)=C2Cl
GI50: 26.3 µM (inactive)

Molecule: O=[N+]([O-])c1c(/C=N/Nc2ccccc2)oc(-c2ccc3c(c2)OCO3)c1-c1ccc2c(c1)OCO2
GI50: 3.9 µM (inactive)

Molecule: CC(=O)c1c(SCCN2CCOCC2)n(-c2ccccc2)c(=S)n(-c2ccccc2)c1=O
GI50: 26.2 µM (inactive)

Molecule: Cc1nc2ccc(S(=O)(=O)Nc3ccccn3)cc2c(=O)n1NS(=O)(=O)c1ccccn1
GI50: > 100 µM (inactive)

Molecule: COC(=O)C(C)(/N=C/c1ccccc1)c1ccccc1 (stereo not drawn)
GI50: > 100 µM (inactive)

Molecule: Oc1ccc(-c2nc3ccccc3s2)cc1
GI50: 37 µM (inactive)

Molecule: OCCCNCc1ccccn1
GI50: > 100 µM (inactive)

Molecule: CCOC(=O)c1cnc2sc3ccc4ccccc4c3n2c1=O
GI50: > 100 µM (inactive)

Molecule: C=CCc1ccccc1CC1(OCC)OC(=O)c2ccccc21 (stereo not drawn)
GI50: 94 µM (inactive)

Molecule: Cc1nc2ccccc2c(=O)n1/N=C(\N=N\c1ccccc1Cl)c1ccccc1
GI50: 19.1 µM (inactive)

Molecule: Cc1cc(C)n(CN(Cn2nc(C)cc2C)c2ccc(N(Cn3nc(C)cc3C)Cn3nc(C)cc3C)cc2)n1
GI50: 25.8 µM (inactive)

Molecule: O=C(O)CCC(NC(=O)c1ccc(Nc2nc3cc(C(F)(F)F)ccc3nc2-c2ccccc2)cc1)C(=O)O (stereo not drawn)
GI50: > 74.6 µM (inactive)

Molecule: C=CC1(C)CC(=O)C2(O)C(C)(O1)C(OC(C)=O)C(O)C1C(C)(C)CCC(O)C12C (stereo not drawn)
GI50: 59.7 µM (inactive)

Molecule: O=C(O)c1ccc(C(O)(c2ccccc2)c2ccccc2)cc1
GI50: > 100 µM (inactive)

Molecule: Cc1c2c(n(CC(c3ccccc3)c3ccccc3)c1C)NN=C(C#N)S2(=O)=O
GI50: > 100 µM (inactive)

Molecule: O=C1C2C=CC(C2)C(c2ccc(O)cc2)N1O (stereo not drawn)
GI50: > 100 µM (inactive)
